System: H929 human cancer cell lines
Assay: Cellular viability / proliferation (Cell TiterGlo, 72 h)
Type: cell-based
Details: Homo sapiens, NCI-H929, 72 h, read-out: GI50 on cellular proliferation of H929 human cancer cell lines, H929 cells, 72 h, Cell TiterGlo, 10% FBS
Measured GI50 values are reported for all entries that follow.

compound.smiles | target.under.test | scale.unit | qualifier | GI50
CCc1ccnc(Cn2c(C(=O)O)cc3cc(C)cc(N4C[C@@H](C)n5c(c(CCCOc6cc(C)c(Cl)c(C)c6)c6ccc(Cl)c(-c7c(C)nn(C)c7C)c65)C4=O)c32)c1 | H929 human cancer cell lines | nM | < | 200
Cc1cc(OCCCc2c3n(c4c(-c5c(C)nn(C)c5C)c(Cl)ccc24)CCCN(c2cc(C(=O)O)c4cnn(CCN(C)C)c4c2)C3=O)cc(C)c1Cl | H929 human cancer cell lines | nM | = | 5400
CCn1ncc2cc(C(=O)O)cc(N3CCCn4c(c(CCCOc5cc(C)c(Cl)c(C)c5)c5ccc(Cl)c(-c6c(C)nn(C)c6C)c54)C3=O)c21 | H929 human cancer cell lines | nM | = | 11000
CCOCCOc1cc(N2C[C@@H](C)n3c(c(CCCOc4cc(C)c(Cl)c(C)c4)c4ccc(Cl)c(-c5c(C)nn(C)c5C)c43)C2=O)c2c(c1)c(C(=O)O)cn2Cc1ccccn1 | H929 human cancer cell lines | nM | = | 400
Cc1noc(-c2ccc3c(c2)c(N2C[C@@H](C)n4c(c(CCCOc5cc(C)c(Cl)c(C)c5)c5ccc(Cl)c(-c6c(C)nn(C)c6C)c54)C2=O)cn3C)n1 | H929 human cancer cell lines | nM | = | 1200
Cc1cc(OCCCc2c3n(c4c(-c5c(C)nn(C)c5C)c(Cl)ccc24)[C@H](C)CN(c2cc(C(=O)O)cc4c2OCCO4)C3=O)cc(C)c1Cl | H929 human cancer cell lines | nM | = | 830

###

Tested on: H929 human cancer cell lines
Experiment: Cellular viability / proliferation (Cell TiterGlo, 72 h)
Format: cell-based
Details: Homo sapiens, NCI-H929, 72 h, read-out: GI50 on cellular proliferation of H929 human cancer cell lines, H929 cells, 72 h, Cell TiterGlo, 10% FBS
Rule: GI50 below 0.5 µM gives criterion met. Equal to or above 0.5 µM gives criterion not met.

compound.smiles | label.class
COc1cccc(Cn2c(C(=O)O)cc3cccc(N4C[C@@H](C)n5c(c(CCCOc6cc(C)c(Cl)c(C)c6)c6ccc(Cl)c(-c7c(C)nn(C)c7C)c65)C4=O)c32)n1 | criterion not met
Cc1cc(OCCCc2c3n(c4c(-c5c(C)nn(C)c5C)c(Cl)ccc24)[C@H](C)CN(c2c(C(=O)O)ccc4ccccc24)C3=O)cc(C)c1Cl | criterion not met
Cc1cc(OCCCc2c3n(c4c(-c5c(C)nn(C)c5C)c(Cl)ccc24)[C@H](C)CN(c2cc(N(C)Cc4ccccn4)cc4c(C(=O)O)cn(C)c24)C3=O)cc(C)c1Cl | criterion not met
Cc1cc(OCCCc2c3n(c4c(-c5c(C)nn(C)c5C)c(Cl)ccc24)[C@H](C)CN(c2cccc4c2cc(-c2nnco2)n4C)C3=O)cc(C)c1Cl | criterion not met
CCN(C)c1cc(N2C[C@@H](C)n3c(c(CCCOc4cc(C)c(Cl)c(C)c4)c4ccc(Cl)c(-c5c(C)nn(C)c5C)c43)C2=O)c2c(c1)cc(C(=O)O)n2C | criterion not met
Cc1cc(OCCCc2c3n(c4c(-c5c(C)nn(C)c5C)c(Cl)ccc24)[C@H](C)CN(c2cn(C)c4ccc(-c5nc[nH]n5)cc24)C3=O)cc(C)c1Cl | criterion met
Cc1cc(OCCCc2c3n(c4c(-c5c(C)nn(C)c5C)c(Cl)ccc24)[C@H](C)CN(c2cccc4cc(C(=O)O)[nH]c24)C3=O)cc(C)c1Cl | criterion not met
COCCn1c(C(=O)O)cc2c(OC)ccc(N3C[C@@H](C)n4c(c(CCCOc5cc(C)c(Cl)c(C)c5)c5ccc(Cl)c(-c6c(C)nn(C)c6C)c54)C3=O)c21 | criterion met
Cc1nnc(-c2ccc3c(c2)c(N2C[C@@H](C)n4c(c(CCCOc5cc(C)c(Cl)c(C)c5)c5ccc(Cl)c(-c6c(C)nn(C)c6C)c54)C2=O)cn3C)o1 | criterion not met
Cc1cc(OCCCc2c3n(c4c(-c5c(C)nn(C)c5C)c(Cl)ccc24)[C@H](C)CN(c2cn(C)c4ccc(-c5ncccn5)cc24)C3=O)cc(C)c1Cl | criterion met

###

Target: Mcl-1 (Homo sapiens (Human), UniProt Q07820)
Sequence (Q07820 172-327): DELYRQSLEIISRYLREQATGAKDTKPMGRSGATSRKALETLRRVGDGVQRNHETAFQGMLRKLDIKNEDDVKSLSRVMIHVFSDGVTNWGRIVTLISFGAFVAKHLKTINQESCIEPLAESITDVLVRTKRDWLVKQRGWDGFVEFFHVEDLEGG
Assay: Fluorescence polarization anisotropy (FPA) competition assay, FITC-Bak or FITC-Bim BH3 peptide
Format: binding
Details: read-out: Ki for Inhibition of Mcl-1 by FPA assay
# Ki per entry

compound.smiles | Ki / nM
Cc1cc(OCCCc2c3n(c4c(-c5c(C)nn(C)c5C)c(Cl)ccc24)CCCN(Cc2cc(C(=O)O)cc(N4CCN(C(=O)N(C)C)CC4)n2)C3=O)cc(C)c1Cl | 12
Cc1cc(OCCCc2c3n(c4c(-c5c(C)ncnc5C)c(Cl)ccc24)[C@H](C)CN(c2cccc4cc(C(N)=O)n(C)c24)C3=O)cc(C)c1Cl | 6.8
Cc1cc(OCCCc2c3n(c4c(-c5c(C)nn(C)c5C)c(Cl)ccc24)[C@H](C)CN(c2cccc4c2cc(C(=O)O)n4Cc2ccccn2)C3=O)cc(C)c1Cl | 2.8

###

Target: Mcl-1 (Homo sapiens (Human), UniProt Q07820)
Assay: Fluorescence polarization anisotropy (FPA) competition assay, FITC-Bak or FITC-Bim BH3 peptide
Assay type: binding
Details: read-out: Ki for Inhibition of Mcl-1 by FPA assay
pKi: −log10 of the molar value.

compound | target.under.test | qualifier | pKi
Cc1cc(OCCCc2c3n(c4c(-c5c(C)nn(C)c5C)c(Cl)ccc24)[C@H](C)CN(c2ccnc4c(C(=O)O)cccc24)C3=O)cc(C)c1Cl [Example 253] | Mcl-1 (Homo sapiens (Human), UniProt Q07820) | = | 8.92
Cc1cc(OCCCc2c3n(c4c(-c5c(C)ncnc5C)c(Cl)ccc24)CCCNC3=O)cc(C)c1Cl [Example 120] | Mcl-1 (Homo sapiens (Human), UniProt Q07820) | = | 7.41
Cc1cc(OCCCc2c3n(c4c(-c5c(C)nn(C)c5C)c(Cl)ccc24)[C@H](C)CN(c2cc(C(=O)O)c4ccn(CCN5CCOCC5)c4c2)C3=O)cc(C)c1Cl [Example 94] | Mcl-1 (Homo sapiens (Human), UniProt Q07820) | > | 9.00
Cc1cc(OCCCc2c3n(c4c(-c5c(C)nn(C)c5C)c(Cl)ccc24)[C@H](C)CN(c2cc(OCc4ccccc4)cc4c2cc(C(=O)O)n4C)C3=O)cc(C)c1Cl [Example 310] | Mcl-1 (Homo sapiens (Human), UniProt Q07820) | = | 8.82
Cc1cc(OCCCc2c3n(c4c(-c5c(C)nn(C)c5C)c(Cl)ccc24)[C@H](C)CN(c2cc(C(=O)O)c4cnn(C(C)C)c4c2)C3=O)cc(C)c1Cl [Example 131] | Mcl-1 (Homo sapiens (Human), UniProt Q07820) | > | 9.00
Cc1cc(OCCCc2c3n(c4c(-c5c(C)cccc5C)c(Cl)ccc24)CCCN(c2cc(C(=O)O)c4ccn(C)c4c2)C3=O)cc(C)c1Cl [Example 91] | Mcl-1 (Homo sapiens (Human), UniProt Q07820) | = | 8.14
Cc1cc(OCCCc2c3n(c4c(-c5c(C)ncnc5C)c(Cl)ccc24)[C@H](C)CN(c2cccc4c(C(=O)O)ccnc24)C3=O)cc(C)c1Cl [Example 225] | Mcl-1 (Homo sapiens (Human), UniProt Q07820) | > | 9.00
Cc1cc(N2C[C@@H](C)n3c(c(CCCOc4cc(C)c(Cl)c(C)c4)c4ccc(Cl)c(-c5c(C)ncnc5C)c43)C2=O)c2c(c1)cc(C(=O)O)n2C [Example 272] | Mcl-1 (Homo sapiens (Human), UniProt Q07820) | > | 9.00
COc1ccc(N2C[C@@H](C)n3c(c(CCCOc4cc(C)c(Cl)c(C)c4)c4ccc(Cl)c(-c5c(C)nn(C)c5C)c43)C2=O)c2c1c(C(=O)O)cn2C [Example 445] | Mcl-1 (Homo sapiens (Human), UniProt Q07820) | = | 8.66
Cc1cc(OCCCc2c3n(c4c(-c5c(C)nn(C)c5C)c(Cl)ccc24)[C@H](C)CN(c2cn(C)c4ccc(-c5ncn(C)n5)cc24)C3=O)cc(C)c1Cl [Example 403] | Mcl-1 (Homo sapiens (Human), UniProt Q07820) | = | 8.82
Cc1cc(OCCCc2c3n(c4c(-c5c(C)nn(C)c5C)c(Cl)ccc24)[C@H](C)CN(c2cccc4cccc(C(=O)O)c24)C3=O)cc(C)c1Cl [Example 191] | Mcl-1 (Homo sapiens (Human), UniProt Q07820) | > | 9.00
Cc1cc(N2C[C@@H](C)n3c(c(CCCOc4cc(C)c(Cl)c(C)c4)c4ccc(Cl)c(-c5c(C)nn(C)c5C)c43)C2=O)c2cc(C(=O)O)n(C)c2c1 [Example 317] | Mcl-1 (Homo sapiens (Human), UniProt Q07820) | > | 9.00
